molecular target: Human plasma kallikrein (Homo sapiens, UniProt P03952); construct: yields a heavy chain (371 amino acids) and a light chain (248 amino acids); purchased Enzyme Research Laboratories; assay: Plasma Kallikrein Assay; format: biochemical; settings: purified Human plasma kallikrein 0.5 nM, substrate Acetyl-K-P-R-AFC; read-out: PKal IC50
Sequence (P03952 391-638 limits assumed): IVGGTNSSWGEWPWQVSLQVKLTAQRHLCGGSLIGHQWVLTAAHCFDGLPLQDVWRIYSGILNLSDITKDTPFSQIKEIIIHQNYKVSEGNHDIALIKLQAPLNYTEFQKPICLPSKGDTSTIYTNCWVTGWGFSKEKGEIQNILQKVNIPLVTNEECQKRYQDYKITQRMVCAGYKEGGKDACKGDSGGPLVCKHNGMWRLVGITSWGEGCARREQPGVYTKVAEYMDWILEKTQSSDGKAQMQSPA
Sequence (P03952 20-390 partner limits assumed): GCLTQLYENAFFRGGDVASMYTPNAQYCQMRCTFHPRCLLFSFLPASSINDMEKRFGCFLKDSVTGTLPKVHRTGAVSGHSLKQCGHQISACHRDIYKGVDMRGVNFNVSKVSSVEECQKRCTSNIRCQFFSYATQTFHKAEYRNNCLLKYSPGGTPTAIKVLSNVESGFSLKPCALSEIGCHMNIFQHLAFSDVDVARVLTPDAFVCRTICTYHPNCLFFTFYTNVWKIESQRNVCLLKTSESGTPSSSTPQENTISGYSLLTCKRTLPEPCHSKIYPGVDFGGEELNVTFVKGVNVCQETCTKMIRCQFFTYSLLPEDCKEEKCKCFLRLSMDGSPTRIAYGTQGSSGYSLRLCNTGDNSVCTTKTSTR
Below is a list of entries, each paired with its recorded IC50 value.

compound	obs_value
O=C1Nc2ccc(Cl)c(F)c2[C@@]2(CCCN(C(=O)c3nnc(C(c4ccccc4)C4CC4)[nH]3)C2)O1 (single isomer, unassigned) [Example 106]	1.6 nM
O=C1Nc2ccc(Cl)c(F)c2[C@@]2(CCCN(C(=O)c3nnc(C(CC(F)(F)F)c4cccc(Cl)c4)[nH]3)C2)O1 (single isomer, unassigned) [Example 101]	10.4 nM
CCC(c1ccnc(C(F)(F)F)c1)n1cc(C(=O)N2CCC[C@@]3(C2)OC(=O)Nc2ccc(Cl)c(F)c23)cn1 (single isomer, unassigned) [Example 38]	1.8 nM
O=C1Nc2ccc(Cl)c(F)c2[C@]2(CCN(C(=O)C3(F)CCN(Cc4ccc(Cn5ccccc5=O)cc4)CC3)C2)O1 [Example 138]	5.6 nM
O=C1Nc2ccc(Cl)c(F)c2[C@@]2(CCCN(C(=O)c3nnc(Cc4ccccc4F)[nH]3)C2)O1 [Example 114]	33.1 nM
Cc1cc(Cc2nnc(C(=O)N3CCC[C@@]4(C3)OC(=O)Nc3ccc(Cl)c(F)c34)[nH]2)cc2[nH]nnc12 [Example 123]	19.1 nM
O=C1Nc2ccc(Cl)c(F)c2[C@@]2(CCCN(C(=O)c3cnn(Cc4cccc(C5CC5)c4)c3)C2)O1 [Example 10]	26.8 nM
O=C1Nc2ccc(Cl)c(F)c2[C@@]2(CCCN(C(=O)c3cnc(C(c4ccc(F)cc4)C(F)(F)F)[nH]3)C2)O1 (single isomer, unassigned) [Example 83]	21.3 nM

# IC50 of O=C1Nc2ccc(Cl)c(F)c2[C@]2(CCN(C(=O)C3CCN(Cc4ccc(Cn5ccccc5=O)cc4)C3)C2)O1 (single isomer, unassigned) [Example 137] = 31 nM

Sample CC[C@@H](c1ccc(F)cc1)c1nnc(C(=O)N2CCC[C@@]3(C2)OC(=O)Nc2ccc(Cl)c(F)c23)[nH]1 (single isomer, unassigned) [Example 84] ; IC50 observed: 4.5 nM

Entry N#Cc1ccc(Cn2cc(C(=O)N3CCC[C@@]4(C3)OC(=O)Nc3ccc(Cl)c(F)c34)cn2)cc1Cl [Example 47] ; IC50 = 27.1 nM

IC50 for O=C1Nc2ccc(Cl)c(F)c2[C@@]2(CCCN(C(=O)c3nnc(Cc4ccc5c(c4)OCO5)[nH]3)C2)O1 [Example 119] is 47.1 nM

* * *

Below, each of the compounds is paired with its reported IC50 value.
target: Human plasma kallikrein (Homo sapiens, UniProt P03952); construct: yields a heavy chain (371 amino acids) and a light chain (248 amino acids); purchased Enzyme Research Laboratories; test: Plasma Kallikrein Assay; format: biochemical; conditions: purified Human plasma kallikrein 0.5 nM, substrate Acetyl-K-P-R-AFC; read-out: PKal IC50
Answer by giving the amount and then stating its unit.

Solved entries:
compound	IC50
O=C1Nc2ccc(Cl)c(F)c2[C@]2(CCN(C(=O)C3CCN(Cc4ccc(Cn5ccccc5=O)cc4)C3)C2)O1 (single isomer, unassigned) [Example 136]	0.0432 µM
CCC(c1ccc2cnccc2c1)n1cc(C(=O)N2CCC[C@@]3(C2)OC(=O)Nc2ccc(Cl)c(F)c23)cn1 (single isomer, unassigned) [Example 35]	0.0026 µM
CCC(F)(c1ccc(F)cc1)c1n[nH]c(C(=O)N2CCC[C@@]3(C2)OC(=O)Nc2ccc(Cl)c(F)c23)n1 (single isomer, unassigned) [Example 129]	0.0089 µM
O=C1Nc2ccc(Cl)c(F)c2[C@@]2(CCCN(C(=O)c3cnc(C(O)c4ccc(F)cc4)[nH]3)C2)O1 (single isomer, unassigned) [Example 78]	0.0137 µM
CCC(c1ccc2c(c1)COC2)c1nnc(C(=O)N2CCC[C@@]3(C2)OC(=O)Nc2ccc(Cl)c(F)c23)[nH]1 (single isomer, unassigned) [Example 112]	0.001 µM

Form: compound = O=C1Nc2ccc(Cl)c(F)c2[C@@]2(CCCN(C(=O)c3cnn(Cc4ccc5c(c4)CNC5=O)c3)C2)O1 [Example 61] ; IC50 = 0.0365 µM

Looking up COC(=O)c1ccc(Cn2cc(C(=O)N3CCC[C@@]4(C3)OC(=O)Nc3ccc(Cl)c(F)c34)cn2)cc1F [Example 49] , I see its IC50 listed as 0.047 µM

The reported IC50 of the compound C[C@H](O)[C@@H](c1ccccc1)n1cc(C(=O)N2CCC[C@@]3(C2)OC(=O)Nc2ccc(Cl)c(F)c23)cn1 [Example 9] was 0.0297 µM

Origin of values: patent US20250099478A1
